Test system: OVCAR-8 ovarian
Assay: NCI-60 one-dose screen, 48 h (100 = growth as untreated, 0 = no growth, -100 = all killed)
Conditions: 10 µM unless noted
Compounds without any hit were thinned out: in the full panel of roughly 83,000, 20% have a hit.
Outcome: true (1) for growth of at least 30%; false (0) for anything lower.

compound: CCOC(=O)c1c(C)oc2ncnc(Nc3ccc(NC(=O)Nc4ccc(CC)cc4)cc3)c12
tested-on: OVCAR-8 ovarian
group: true (1)
//
compound: COc1cc(-c2nn(-c3ccc(NC(=O)Nc4ccc(Cl)c(C(F)(F)F)c4)cc3)cc2-c2ccncc2)ccc1Cl
tested-on: OVCAR-8 ovarian
group: false (0)
//
compound: COc1cc(OC)cc(-c2ccc(-c3ccc(C(=N)N)cc3)s2)c1
tested-on: OVCAR-8 ovarian
group: false (0)
//
compound: O=C(N/N=C\c1ccc(Cl)cc1)C(=O)N/N=C\c1ccc(Cl)cc1
tested-on: OVCAR-8 ovarian
group: true (1)
//
compound: O=C(Nc1cccc(Cn2c(=O)[nH]c3ccc(Oc4ncccn4)cc3c2=O)c1)c1cccc(F)c1
tested-on: OVCAR-8 ovarian
group: true (1)
//
compound: CN(CCC#N)c1ccc(/C=C(\C#N)c2cccc(C(F)(F)F)c2)cc1
tested-on: OVCAR-8 ovarian
group: true (1)
//
compound: Nc1nc2c(c3cnccc13)C(c1cccc(Br)c1)Cc1cnccc1-2 (centres undefined)
tested-on: OVCAR-8 ovarian
group: false (0)
//
compound: CC(C)OC(=O)[C@H](C)N[P@@](=O)(OC[C@@]1(C)O[C@@H](n2cc(F)c(N)nc2=O)C[C@@H]1O[P@](=O)(N[C@@H](C)C(=O)OC(C)C)Oc1ccccc1)Oc1ccccc1
tested-on: OVCAR-8 ovarian
group: true (1)
//
compound: COc1cccc(Cn2cc3c(c2)-c2oncc2CC3)c1
tested-on: OVCAR-8 ovarian
group: true (1)

Data provenance: PubChem BioAssay (NCI)
